experiment: Pharmacokinetic evaluation of compounds in dogs; type: in vivo; details: dog, plasma; Beagle dogs, IV, 1.56 mg/kg
measured_attribute: Vd

q: Can you look up the measured Vd of C#Cc1c(F)ccc2cc(N)cc(-c3ccc4c(N5CC6CCC(C5)N6)nc(OC[C@@]56CCCN5C[C@H](F)C6)nc4c3F)c12 for me?
a: 5.89 L/kg

----------
experiment: Pharmacokinetic evaluation of compounds in mice; format: in vivo, CD-1 mice; conditions: mouse, plasma; CD-1 male mice, PO, 5.54 mg/kg
Where a name gives a salt, the structure may show the parent alone.
measured_attribute: bioavailability (%)
Your answer is read as %, so omit the unit and give the number.

q: Can you look up the measured bioavailability of C#Cc1c(F)ccc2cc(O)cc(-c3ccc4c(N5CC6CCC(C5)N6)nc(OC[C@@]56CCCN5C[C@H](F)C6)nc4c3F)c12 [Compound 010 hydrochloride] for me?
a: 5.1

----------
assay: Pharmacokinetic evaluation of compounds in mice; assay type: in vivo, CD-1 mice; conditions: mouse, plasma; CD-1 male mice, IV, 1.03 mg/kg
measured_attribute: Vd (L/kg)
Your answer is read as L/kg, so omit the unit and give the number.

q: Can you look up the measured Vd of C#Cc1c(F)ccc2cc(O)cc(-c3ccc4c(N5CC6CCC(C5)N6)nc(OC[C@@]56CCCN5C[C@H](F)C6)nc4c3F)c12 for me?
a: 25

----------
assay: Pharmacokinetic evaluation of compounds in rats; type: in vivo; settings: rat, plasma; SD rats, PO, 31.7 mg/kg
measured_attribute: half-life (h)
Your answer is read as h, so omit the unit and give the number.

q: Can you look up the measured half-life of C#Cc1c(F)ccc2cc(N)cc(-c3ccc4c(N5CC6CCC(C5)N6)nc(OC[C@@]56CCCN5C[C@H](F)C6)nc4c3F)c12 for me?
a: 6.8

----------
assay: Pharmacokinetic evaluation of compounds in dogs; format: in vivo; settings: dog, plasma; Beagle dogs, PO, 32.1 mg/kg
measured_attribute: AUC(0-inf) (µM·h)
Your answer is read as µM·h, so omit the unit and give the number.

q: Can you look up the measured AUC(0-inf) of C#Cc1c(F)ccc2cc(N)cc(-c3ccc4c(N5CC6CCC(C5)N6)nc(OC[C@@]56CCCN5C[C@H](F)C6)nc4c3F)c12 for me?
a: 0.969

----------
Experiment: Pharmacokinetic evaluation of compounds in mice
Type: in vivo, CD-1 mice
Conditions: mouse, plasma; CD-1 male mice, PO, 16.0 mg/kg
Experimental: Purpose of assay: To assay the pharmacokinetic data of the compounds in CD-1 mice in vivo. Compounds were mixed with vehicle 5% DMSO/95% (10% HP-β-CD aqueous solution), and the mixture was vortexed and sonicated to give 0.2 mg/mL-0.3 mg/mL clear solutions. […] The drug concentration was analyzed by LC-MS/MS method and pharmacokinetic parameters were calculated by Phoenix WinNonlin software (Pharsight, USA). […]
measured_attribute: bioavailability
Please answer in the form of a number followed by its unit of measurement.

q: Can you look up the measured bioavailability of C#Cc1c(F)ccc2cc(N)cc(-c3ccc4c(N5CC6CCC(C5)N6)nc(OC[C@@]56CCCN5C[C@H](F)C6)nc4c3F)c12 [Compound 014] for me?
a: 20.5%

----------
Listed next: entries and their corresponding pIC50.
target: KRAS^G12D (Homo sapiens (Human), UniProt P01116, G12D); assay: Assay of the activity of inhibiting KRAS^G12D (TR-FRET, SOS/GTP nucleotide exchange)
Sequence (P01116-2 other isoform, or with tags, fused parts or gaps G12D): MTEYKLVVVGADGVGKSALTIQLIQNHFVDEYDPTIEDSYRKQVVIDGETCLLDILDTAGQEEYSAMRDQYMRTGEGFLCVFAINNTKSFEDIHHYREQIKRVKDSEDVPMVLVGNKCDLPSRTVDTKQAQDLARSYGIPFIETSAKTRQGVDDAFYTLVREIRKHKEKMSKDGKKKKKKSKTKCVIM
Structures can show the parent of a compound that is named as a salt.
Schema: pIC50 number; meaning minus log10 of the concentration expressed in molar units.

A selection of reference data follows.
Oc1cc(-c2c(F)cc3c(N4CC5CCC(C4)N5)nc(OC[C@@]45CCCN4C[C@H](F)C5)nc3c2Cl)c2ccccc2c1 [Compound 008 hydrochloride]
8.89
Nc1nc2c(-c3c(F)cc4c(N5CC6CCC(C5)N6)nc(OC[C@@]56CCCN5C[C@H](F)C6)nc4c3Cl)ccc(F)c2s1 [Compound 007 hydrochloride]
9.40

Now for another entry.
q: Observed pIC50 on KRAS^G12D (Homo sapiens (Human), UniProt P01116, G12D) for Oc1cc(-c2ccc3c(N4CC5CCC(C4)N5)nc(OC[C@@]45CCCN4C[C@H](F)C5)nc3c2F)c2ccccc2c1 [Compound 005 hydrochloride] , please.
a: 10.00

----------
experiment: Pharmacokinetic evaluation of compounds in mice; format: in vivo, CD-1 mice; conditions: mouse, plasma; CD-1 male mice, PO, 5.54 mg/kg
Where a name gives a salt, the structure may show the parent alone.
measured_attribute: half-life (h)
Your answer is read as h, so omit the unit and give the number.

q: Can you look up the measured half-life of C#Cc1c(F)ccc2cc(O)cc(-c3ccc4c(N5CC6CCC(C5)N6)nc(OC[C@@]56CCCN5C[C@H](F)C6)nc4c3F)c12 [Compound 010 hydrochloride] for me?
a: 1.6

----------
test: Pharmacokinetic evaluation of compounds in mice; type: in vivo, CD-1 mice; details: mouse, plasma; CD-1 male mice, IV, 1.03 mg/kg
measured_attribute: AUC(0-inf) (µM·h)
Your answer is read as µM·h, so omit the unit and give the number.

q: Can you look up the measured AUC(0-inf) of C#Cc1c(F)ccc2cc(O)cc(-c3ccc4c(N5CC6CCC(C5)N6)nc(OC[C@@]56CCCN5C[C@H](F)C6)nc4c3F)c12 for me?
a: 0.457

----------
Listed next: entries and their corresponding IC50.
target: KRAS^G12D (Homo sapiens (Human), UniProt P01116, G12D); test: Assay of the activity of inhibiting KRAS^G12D (TR-FRET, SOS/GTP nucleotide exchange)
Structures can show the parent of a compound that is named as a salt.
Your answer is read as nM, so omit the unit and give the number.

A selection of reference data follows.
Oc1cc(-c2c(Cl)cc3c(N4CC5CCC(C4)N5)nc(OC[C@@]45CCCN4C[C@H](F)C5)nc3c2F)c2ccccc2c1 [Compound 001 formate]
9.2
Nc1nc2c(-c3c(F)cc4c(N5CC6CCC(C5)N6)nc(OC[C@@]56CCCN5C[C@H](F)C6)nc4c3F)ccc(F)c2s1 [Compound 020 formate]
6.6
Oc1cc(-c2c(Cl)cc3c(N4CC5CCC(C4)N5)nc(OC[C@@]45CCCN4C[C@H](F)C5)nc3c2F)c2ccccc2c1 (single isomer, unassigned) [Compound 027 hydrochloride]
38.6

Now for another entry.
q: Can you look up the measured IC50 of Nc1nc2c(-c3c(Cl)cc4c(N5CC6CCC(C5)N6)nc(OC[C@@]56CCCN5C[C@H](F)C6)nc4c3F)ccc(F)c2s1 for me?
a: 0.5

----------
assay: Pharmacokinetic evaluation of compounds in mice; assay type: in vivo, CD-1 mice; settings: mouse, plasma; CD-1 male mice, PO, 16.0 mg/kg
measured_attribute: AUC(0-inf) (µM·h)
Your answer is read as µM·h, so omit the unit and give the number.

q: Can you look up the measured AUC(0-inf) of C#Cc1c(F)ccc2cc(N)cc(-c3ccc4c(N5CC6CCC(C5)N6)nc(OC[C@@]56CCCN5C[C@H](F)C6)nc4c3F)c12 [Compound 014] for me?
a: 1.49

----------
assay: Pharmacokinetic evaluation of compounds in mice; type: in vivo, CD-1 mice; conditions: mouse, plasma; CD-1 male mice, IV, 1.28 mg/kg
measured_attribute: half-life (h)
Your answer is read as h, so omit the unit and give the number.

q: Can you look up the measured half-life of C#Cc1c(F)ccc2cc(N)cc(-c3ccc4c(N5CC6CCC(C5)N6)nc(OC[C@@]56CCCN5C[C@H](F)C6)nc4c3F)c12 [Compound 014] for me?
a: 5.7

----------
experiment: Pharmacokinetic evaluation of compounds in rats; type: in vivo; conditions: rat, plasma; SD rats, IV, 1.56 mg/kg
measured_attribute: half-life (min)
Your answer is read as min, so omit the unit and give the number.

q: Can you look up the measured half-life of C#Cc1c(F)ccc2cc(N)cc(-c3ccc4c(N5CC6CCC(C5)N6)nc(OC[C@@]56CCCN5C[C@H](F)C6)nc4c3F)c12 for me?
a: 33.6

----------
experiment: Pharmacokinetic evaluation of compounds in mice; type: in vivo, CD-1 mice; conditions: mouse, plasma; CD-1 male mice, PO, 16.0 mg/kg
measured_attribute: half-life (min)
Your answer is read as min, so omit the unit and give the number.

q: Can you look up the measured half-life of C#Cc1c(F)ccc2cc(N)cc(-c3ccc4c(N5CC6CCC(C5)N6)nc(OC[C@@]56CCCN5C[C@H](F)C6)nc4c3F)c12 for me?
a: 360

----------
assay: Pharmacokinetic evaluation of compounds in mice; assay type: in vivo, CD-1 mice; conditions: mouse, plasma; CD-1 male mice, PO, 16.0 mg/kg
measured_attribute: Cmax (nM)
Your answer is read as nM, so omit the unit and give the number.

q: Can you look up the measured Cmax of C#Cc1c(F)ccc2cc(N)cc(-c3ccc4c(N5CC6CCC(C5)N6)nc(OC[C@@]56CCCN5C[C@H](F)C6)nc4c3F)c12 [Compound 014] for me?
a: 524
